TARGET_DESC: UniProt P08482
Sequence (P08482 1-460): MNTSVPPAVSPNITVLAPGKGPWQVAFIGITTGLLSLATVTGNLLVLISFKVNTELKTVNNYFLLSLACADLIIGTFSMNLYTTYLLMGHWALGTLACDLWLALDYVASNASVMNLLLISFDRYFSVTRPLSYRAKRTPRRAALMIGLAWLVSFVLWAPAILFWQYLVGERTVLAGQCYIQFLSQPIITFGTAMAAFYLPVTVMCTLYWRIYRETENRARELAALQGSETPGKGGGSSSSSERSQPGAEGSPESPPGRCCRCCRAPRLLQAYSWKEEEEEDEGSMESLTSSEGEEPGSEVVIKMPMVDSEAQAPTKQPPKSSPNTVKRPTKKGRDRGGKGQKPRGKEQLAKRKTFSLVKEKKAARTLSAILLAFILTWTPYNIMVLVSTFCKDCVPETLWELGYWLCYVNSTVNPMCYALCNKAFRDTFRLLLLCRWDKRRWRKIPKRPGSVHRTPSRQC
ASSAY_SUMMARY: mAChR M1 cell-based functional assay (calcium mobilization, Fluo-4, FDSS)
TEST_CONDITIONS: maximal calcium flux response from curve fit or response at 30 μM compound, as % of the EC80 ACh response
VALUE_KIND: Efficacy (% ACh maximum at 30 μM) (%)

Illustrative cases are given below, each with its answer.
INSERT INTO measurements (compound, readout_value) VALUES
  ('Cc1cc(NC(=O)CS(=O)(=O)c2cn(Cc3cccc(-c4cc[nH]n4)c3F)c3ccccc23)no1', 103),
  ('Cc1cc(NC(=O)C[S+]([O-])c2cn(Cc3cccc(Cl)c3)c3ccccc23)no1 (stereo not shown)', 93);

(I) Cc1cc(NC(=O)CS(=O)(=O)c2cn(Cc3cccc(Br)c3)c3ccccc23)no1
(II) O=C(CS(=O)(=O)c1cn(Cc2cccc(Br)c2)c2cc(F)cc(F)c12)Nc1cccnc1
Query :: // compare measured Efficacy (% ACh maximum at 30 μM), left I , right II , return larger Provide the label of your selected option as the answer.
Result :: I
(I: 91%, II: 42%)

---

TARGET_DESC: UniProtKB P08482
ASSAY_SUMMARY: mAChR M1 cell-based functional assay (calcium mobilization, Fluo-4, FDSS)
TEST_CONDITIONS: positive allosteric modulation of EC20 acetylcholine response, CHO-K1 cells expressing mAChR M1; read-out: Potency (EC50)
pEC50: −log10 of the molar value.
VALUE_KIND: pEC50

INSERT INTO measurements (structure_string, readout_value) VALUES
  ('O=C(CS(=O)(=O)c1cn(Cc2cccc(-c3cccnc3F)c2)c2cc(F)cc(F)c12)Nc1ccccn1', 5.36),
  ('Cc1noc(C)c1-c1cccc(Cn2cc(S(=O)(=O)CC(=O)Nc3ccccn3)c3c(F)cc(F)cc32)c1', 5.47),
  ('COc1ccc(-c2cccc(Cn3cc(S(=O)(=O)CC(=O)Nc4ccccn4)c4c(F)cc(F)cc43)c2)cn1', 5.48);

---

TARGET_DESC: mAChR M1 (UniProt P08482)
ASSAY_SUMMARY: mAChR M1 cell-based functional assay (calcium mobilization, Fluo-4, FDSS)
TEST_CONDITIONS: maximal calcium flux response from curve fit or response at 30 μM compound, as % of the EC80 ACh response
VALUE_KIND: Efficacy (% ACh maximum at 30 μM) (%)

INSERT INTO assay_data (structure_string, readout_value) VALUES
  ('O=C(CS(=O)(=O)c1cn(Cc2cccc(-c3cncnc3)c2)c2cc(F)cc(F)c12)Nc1ccccn1', 45);

(A) Cc1cc(NC(=O)CS(=O)(=O)c2cn(Cc3cccc(-n4ccnn4)c3)c3cc(F)cc(F)c23)no1
(B) O=C(CS(=O)(=O)c1cn(Cc2cccc(Br)c2)c2cc(F)cc(F)c12)NC1COC1
(C) Cc1cc(NC(=O)CS(=O)(=O)c2cn(Cc3cccc(Br)c3)c3cc(F)cc(F)c23)no1
Query :: # sort list by recorded Efficacy (% ACh maximum at 30 μM), greatest to least Give the labels in the order specified.
Result :: C, A, B
